- MEASURED_ON: IGF 3P (Homo sapiens, UniProt P08069)
- Construct: human IGF1R kinase domain residues M954-C1367; made in house; host or cells: baculovirus expression (insect cells)
- Sequence (P08069 954-1367): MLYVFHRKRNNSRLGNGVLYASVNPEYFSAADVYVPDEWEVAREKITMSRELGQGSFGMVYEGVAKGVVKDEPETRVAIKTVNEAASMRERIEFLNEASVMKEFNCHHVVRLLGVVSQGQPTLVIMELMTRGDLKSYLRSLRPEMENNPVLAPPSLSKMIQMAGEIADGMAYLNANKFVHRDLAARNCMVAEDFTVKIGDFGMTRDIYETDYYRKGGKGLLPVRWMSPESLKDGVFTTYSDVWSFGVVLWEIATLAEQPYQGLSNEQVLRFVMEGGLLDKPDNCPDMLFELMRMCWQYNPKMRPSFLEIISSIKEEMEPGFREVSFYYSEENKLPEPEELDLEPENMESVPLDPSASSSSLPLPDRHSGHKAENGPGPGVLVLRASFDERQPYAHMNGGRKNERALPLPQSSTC
- METHOD: IGF1R kinase assay (LCCA), IGF 3P
- Assay type: biochemical
- CONDITION_INFO: IGF1R kinase LCCA assay
PROPERTY_MEASURED: IC50

compound=Cc1cc(Nc2cc(C3CC3)[nH]n2)nc(NCc2ccc(-c3ccc(Cl)cc3)s2)n1 measured_on="IGF 3P (Homo sapiens, UniProt P08069)" property_measured=IC50 recorded_measurement="0.5 to 5 µM"
compound=CN1CCN(c2ccc(CNc3ncc(Br)c(Nc4cc(C5CC5)n[nH]4)n3)cc2)CC1 measured_on="IGF 3P (Homo sapiens, UniProt P08069)" property_measured=IC50 recorded_measurement="0.5 to 5 µM"
compound=CCN(CC)CCNC(=O)CCc1ccc(Nc2nc(C)cc(Nc3ccccc3)n2)cc1 measured_on="IGF 3P (Homo sapiens, UniProt P08069)" property_measured=IC50 recorded_measurement="> 5 µM"
compound=c1ccc(-c2cc(CNc3nc4c(c(Nc5cc(C6CC6)[nH]n5)n3)CCNC4)on2)cc1 measured_on="IGF 3P (Homo sapiens, UniProt P08069)" property_measured=IC50 recorded_measurement="> 5 µM"
compound=CN(C)c1cc(Nc2cc(C3CC3)[nH]n2)nc(NCc2cc(-c3ccccc3)no2)n1 measured_on="IGF 3P (Homo sapiens, UniProt P08069)" property_measured=IC50 recorded_measurement="0.05 to 0.5 µM"
compound=FC(F)(F)c1cccc(CNc2ncc(Br)c(Nc3cc(C4CC4)n[nH]3)n2)c1 measured_on="IGF 3P (Homo sapiens, UniProt P08069)" property_measured=IC50 recorded_measurement="> 5 µM"
compound=CC(C)(C)OC(=O)N1CCC(Nc2ncc(Br)c(Nc3cc(C4CC4)[nH]n3)n2)CC1 measured_on="IGF 3P (Homo sapiens, UniProt P08069)" property_measured=IC50 recorded_measurement="> 5 µM"
compound=Cc1cc(Nc2ccnc(Nc3ccc(N4CCOCC4)cc3)n2)no1 measured_on="IGF 3P (Homo sapiens, UniProt P08069)" property_measured=IC50 recorded_measurement="0.05 to 0.5 µM"
compound=c1ccc(-c2cc(CNc3nc(NCCN4CCCCC4)cc(Nc4cc(C5CC5)[nH]n4)n3)on2)cc1 measured_on="IGF 3P (Homo sapiens, UniProt P08069)" property_measured=IC50 recorded_measurement="< 0.05 µM"
compound="Brc1cnc(NCC2CCCO2)nc1Nc1cc(C2CC2)n[nH]1 (centres unmarked)" measured_on="IGF 3P (Homo sapiens, UniProt P08069)" property_measured=IC50 recorded_measurement="0.5 to 5 µM"

Q: For the compound Brc1cnc(Nc2cccc(Oc3ccccc3)c2)nc1Nc1cc(C2CC2)n[nH]1 , report IC50.
Ans: > 5 µM

Q: Could you please provide reported IC50 for c1cc(Nc2ccon2)nc(Nc2ccc(N3CCOCC3)cc2)n1 ? Thanks!
Ans: > 5 µM

Q: Tell me measured IC50 for COc1cc(Nc2nccc(Nc3cc(C4CC4)n[nH]3)n2)cc(OC)c1 please.
Ans: 0.5 to 5 µM

Q: Give me measured IC50, please, for this compound: O=C(NCc1ccccc1)c1nc(Nc2ccccc2Cl)nc(Nc2cc(C3CC3)n[nH]2)c1[N+](=O)[O-]
Ans: 0.5 to 5 µM

Q: # return recorded IC50 for entry NCCCCn1cc(-c2cccc(OCc3ccccc3)c2)c2c(N)ncnc21
Ans: 0.5 to 5 µM

Q: Fill in IC50 for record CCN(CC)CCCNC(=O)c1ccc(Nc2nccc(Nc3cc(C4CC4)n[nH]3)n2)cc1
Ans: 0.5 to 5 µM

Q: Give IC50 for Brc1cnc(N2CCOCC2)nc1Nc1cc(C2CC2)[nH]n1
Ans: 0.5 to 5 µM

Reference source: patent US8211929B2
